Measured values drawn from patent US8703790B2 for this set.

Listed here are compounds together with their documented pIC50.
Tested on: A549 (lung cancer)
Protocol Notes: In vitro cytotoxicity test (MTT) against human tumour cell line A549
Assay type: cell-based
Recorded Conditions: A549, 24 h contact, 48 h re-growth
Protocol: Human tumour cell lines A549 (lung cancer), HCT-15 (colon cancer) and MCF-7 (breast cancer) have been obtained from the Developmental Therapeutics Program of the National Cancer Institute (Rockville, Md., USA). Cells were routinely grown with RPMI 1640 medium supplemented with 10% foetal calf serum, both obtained from Biochrom AG (Berlin, Germany). […] Cytotoxicity has been evaluated on exponentially growing cells grown for 24 h in presence of the compounds to be tested. […]
Hey, just a heads up that pIC50 is the negative log base 10 of the concentration in molar.

Sample records with pIC50:
Compound	pIC50
CCN1C[C@]2(COC)[C@H](O)C[C@H](OC)[C@]34C1[C@H]([C@H](OC)[C@H]23)[C@]1(OC(=O)CCCCCC(=O)O[C@]23[C@H]5[C@@H](OC(=O)c6ccccc6)[C@](O)(C[C@H]5[C@@]56C7[C@@H]2[C@H](OC)[C@@H]5[C@](COC)(CN7CC)[C@H](O)C[C@@H]6OC)[C@@H](OC)[C@@H]3O)[C@H]2[C@@H](OC(=O)c3ccccc3)[C@](O)(C[C@H]24)[C@@H](OC)[C@@H]1O [PDD, bis[O-(14-benzoylaconine-8-yl)]-pimelate]	5.42
CCN1C[C@]2(COC)[C@H](O)C[C@H](OC)[C@]34C1[C@H]([C@H](OC)[C@H]23)[C@]1(OC(=O)CCCCCCC(=O)O[C@]23[C@H]5[C@@H](OC(=O)c6ccccc6)[C@](O)(C[C@H]5[C@@]56C7[C@@H]2[C@H](OC)[C@@H]5[C@](COC)(CN7CC)[C@H](O)C[C@@H]6OC)[C@@H](OC)[C@@H]3O)[C@H]2[C@@H](OC(=O)c3ccccc3)[C@](O)(C[C@H]24)[C@@H](OC)[C@@H]1O [SDD, bis[O-(14-benzoylaconine-8-yl)]-suberate]	4.73
CCN1C[C@]2(COC)[C@H](O)C[C@H](OC)[C@]34C1[C@H]([C@H](OC)[C@H]23)[C@]1(OC(=O)CCCCCCCC(=O)O[C@]23[C@H]5[C@@H](OC(=O)c6ccccc6)[C@](O)(C[C@H]5[C@@]56C7[C@@H]2[C@H](OC)[C@@H]5[C@](COC)(CN7CC)[C@H](O)C[C@@H]6OC)[C@@H](OC)[C@@H]3O)[C@H]2[C@@H](OC(=O)c3ccccc3)[C@](O)(C[C@H]24)[C@@H](OC)[C@@H]1O [ADD, bis[O-(14-benzoylaconine-8-yl)]-azelate]	4.72

Please examine the following record next.
Exercise: pIC50 lookup needed for CCN1CC2(COC)C(O)CC(OC)C34C5CC6(O)C(OC)C(O)C(OC(=O)CCCCCCCC(=O)O)(C5C6OC(=O)c5ccccc5)C(C(OC)C23)C14 (stereo not shown) [8-O-azeloyl-14-benzoylaconine, reference compound] , thanks.
Solution: 4.77
